System tested: human melanocortin-1 receptor (human)
Run description: cell-based or functional assay
Quantity: EC50, intracellular cyclic AMP (cAMP) levels (nM)
Provide the reading as a plain figure in nM.

Form: substance = Hydantoin(C(O)-(Gly-D-Arg))-cyclo(Cys-Glu-His-D-Phe-Arg-Trp-Cys)-NH2 (peptide; unit assumed) ; EC50, intracellular cyclic AMP (cAMP) levels = 12.9

The substance identified as Hydantoin(C(O)-(D-Arg-Gly))-cyclo(Cys-Glu-His-D-Phe-Arg-Trp-Cys)-NH2 (peptide; unit assumed) registered its EC50, intracellular cyclic AMP (cAMP) levels at 18

Reported EC50, intracellular cyclic AMP (cAMP) levels ( Hydantoin(C(O)-(Nle-Gly))-cyclo(Cys-D-Ala-His-D-Phe-Arg-Trp-Pen)-NH2 (peptide; unit assumed) ) = 17

Sure, the documented EC50, intracellular cyclic AMP (cAMP) levels for cyclo[Hydantoin(C(O)-(Asp-D-Ala))-His-D-Phe-Arg-Trp-Orn]-NH2 (peptide; unit assumed) is 56.6

The recorded EC50, intracellular cyclic AMP (cAMP) levels for entry cyclo[Hydantoin(C(O)-(Glu-D-Ala))-His-D-Phe-Arg-Trp-Dap]-NH2 (peptide; unit assumed) equals 56.7

###

System tested: human melanocortin-3 receptor (human) (UniProt P41968)
Sequence (P41968 whole entry): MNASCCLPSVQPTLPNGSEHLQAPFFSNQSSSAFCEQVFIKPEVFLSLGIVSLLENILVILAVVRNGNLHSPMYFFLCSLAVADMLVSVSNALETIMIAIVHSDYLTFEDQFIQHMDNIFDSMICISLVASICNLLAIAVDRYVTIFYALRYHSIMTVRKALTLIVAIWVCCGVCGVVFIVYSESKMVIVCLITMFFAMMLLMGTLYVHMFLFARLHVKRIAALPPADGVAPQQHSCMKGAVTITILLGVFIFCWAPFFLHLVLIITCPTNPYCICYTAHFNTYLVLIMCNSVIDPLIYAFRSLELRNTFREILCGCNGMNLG
Run description: competition with [125I]-NDP-alpha-MSH, CHO-K1 cell membranes
What Ki was measured for each of the following?
Kindly answer with a numeric value in µM, unit omitted.

Lab note: measured Ki of cyclo[Hydantoin(C(O)-(Asp-A5c))-D-2-Nal-Arg-Trp-Lys]-NH2 (peptide) was 2.39

Summary for this substance, cyclo[Hydantoin(C(O)-(Asp-D-Ala))-His-D-Phe-Arg-Trp-Dap]-NH2 (peptide) : Ki is 1.82

Note to self: Ki recorded for Hydantoin(C(O)-(Gly-D-Arg))-cyclo(Cys-Glu-His-D-Phe-Arg-Trp-Cys)-NH2 (peptide) was 0.078

So, Hydantoin(C(O)-(D-Arg-Gly))-cyclo(Cys-Glu-His-D-Phe-Arg-Trp-Cys)-NH2 (peptide) ? Its Ki was 0.124

The value of Ki measured for the substance cyclo[Hydantoin(C(O)-(Glu-D-Ala))-His-D-Phe-Arg-Trp-Dap]-NH2 (peptide) turned out to be 0.863

Ki reported for this substance cyclo[Hydantoin(C(O)-(Asp-A3c))-D-2-Nal-Arg-Trp-Lys]-NH2 (peptide) : 1.92

Ki reading for cyclo[Hydantoin(C(O)-(Asp-D-Ala))-His-D-Phe-Arg-Trp-Orn]-NH2 (peptide) : 0.576

The reported value for cyclo[Hydantoin(C(O)-(Asp-Aic))-D-2-Nal-Arg-Trp-Lys]-NH2 (peptide) in terms of Ki is 2.63

###

System tested: human melanocortin-3 receptor (human) (UniProt P41968)
Run description: competition with [125I]-NDP-alpha-MSH, CHO-K1 cell membranes
Give Ki for every item shown.

Memo: cyclo[Hydantoin(C(O)-(Glu-D-Ala))-His-D-Phe-Arg-Trp-Dab]-NH2 (peptide) , reported Ki: 0.0905 µM

The reported value for cyclo[Hydantoin(C(O)-(Glu-D-Ala))-His-D-Phe-Arg-Trp-Orn]-NH2 (peptide) in terms of Ki is 2.84 µM

Sample cyclo[Hydantoin(C(O)-(Asp-A6c))-D-2-Nal-Arg-Trp-Lys]-NH2 (peptide) ; Ki observed: 1.48 µM

The substance identified as cyclo[Hydantoin(C(O)-(Asp-Apc))-D-2-Nal-Arg-Trp-Lys]-NH2 (peptide) registered its Ki at 2.76 µM

###

Please provide measured EC50, intracellular cyclic AMP (cAMP) levels for the entries that follow.
System tested: human melanocortin-4 receptor (human) (UniProt P32245)
Sequence (P32245 whole entry): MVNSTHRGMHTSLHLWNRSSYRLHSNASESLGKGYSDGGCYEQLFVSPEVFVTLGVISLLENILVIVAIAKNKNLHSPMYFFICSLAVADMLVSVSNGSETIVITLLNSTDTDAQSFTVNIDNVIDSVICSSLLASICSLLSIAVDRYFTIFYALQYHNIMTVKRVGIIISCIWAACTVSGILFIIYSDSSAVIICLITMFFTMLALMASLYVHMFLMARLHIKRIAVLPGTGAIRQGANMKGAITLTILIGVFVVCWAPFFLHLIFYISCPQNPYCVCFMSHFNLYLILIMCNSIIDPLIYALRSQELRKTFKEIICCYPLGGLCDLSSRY
Run description: cell-based or functional assay
Phrase the answer as number then unit, nothing more needed.

Hydantoin(C(O)-(D-Arg-Gly))-cyclo(Cys-Glu-His-D-Phe-Arg-Trp-Cys)-NH2 (peptide; unit assumed) yielded EC50, intracellular cyclic AMP (cAMP) levels of 0.16 nM

Kindly note the recorded EC50, intracellular cyclic AMP (cAMP) levels for cyclo[Hydantoin(C(O)-(Asp-D-Ala))-His-D-Phe-Arg-Trp-Orn]-NH2 (peptide; unit assumed) , which is 4.5 nM

// cyclo[Hydantoin(C(O)-(Glu-D-Ala))-His-D-Phe-Arg-Trp-Dap]-NH2 (peptide; unit assumed) : EC50, intracellular cyclic AMP (cAMP) levels value = 0.182 nM

Measured EC50, intracellular cyclic AMP (cAMP) levels of Hydantoin(C(O)-(Gly-D-Arg))-cyclo(Cys-Glu-His-D-Phe-Arg-Trp-Cys)-NH2 (peptide; unit assumed) : 0.125 nM

// recorded EC50, intracellular cyclic AMP (cAMP) levels for Hydantoin(C(O)-(Nle-Gly))-cyclo(Cys-D-Ala-His-D-Phe-Arg-Trp-Pen)-NH2 (peptide; unit assumed) : 0.584 nM

Kindly note the recorded EC50, intracellular cyclic AMP (cAMP) levels for cyclo[Hydantoin(C(O)-(Asp-D-Ala))-His-D-Phe-Arg-Trp-Dap]-NH2 (peptide; unit assumed) , which is 2.12 nM

Record cyclo[Hydantoin(C(O)-(Glu-D-Ala))-His-D-Phe-Arg-Trp-Orn]-NH2 (peptide; unit assumed) . Reported EC50, intracellular cyclic AMP (cAMP) levels: 4.94 nM

###

Assign Ki to each entry below.
System tested: human melanocortin-5 receptor (human) (UniProt P33032)
Sequence (P33032 whole entry): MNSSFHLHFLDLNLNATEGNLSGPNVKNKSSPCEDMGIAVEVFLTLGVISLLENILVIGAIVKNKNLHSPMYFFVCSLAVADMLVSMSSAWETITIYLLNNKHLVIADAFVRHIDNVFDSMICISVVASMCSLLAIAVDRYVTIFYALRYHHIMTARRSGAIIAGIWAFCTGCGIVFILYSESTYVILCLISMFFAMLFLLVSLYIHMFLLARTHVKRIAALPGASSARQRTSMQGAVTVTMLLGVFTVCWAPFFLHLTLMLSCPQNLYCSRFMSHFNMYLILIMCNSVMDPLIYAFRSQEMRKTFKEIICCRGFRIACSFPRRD
Run description: competition with [125I]-NDP-alpha-MSH, CHO-K1 cell membranes
Use nM as the unit, but write only the number.

Record cyclo[Hydantoin(C(O)-(Asp-D-Ala))-His-D-Phe-Arg-Trp-Orn]-NH2 (peptide) , field Ki: 6400

Note to self: Ki recorded for Hydantoin(C(O)-(Nle-Gly))-cyclo(Cys-D-Ala-His-D-Phe-Arg-Trp-Pen)-NH2 (peptide) was 27.1

Field Ki (entry cyclo[Hydantoin(C(O)-(Glu-D-Ala))-His-D-Phe-Arg-Trp-Dab]-NH2 (peptide) ) reads 877

// cyclo[Hydantoin(C(O)-(Asp-Aic))-D-2-Nal-Arg-Trp-Lys]-NH2 (peptide) : Ki value = 1160

Form: substance = cyclo[Hydantoin(C(O)-(Asp-A6c))-D-2-Nal-Arg-Trp-Lys]-NH2 (peptide) ; Ki = 451

// sample cyclo[Hydantoin(C(O)-(Asp-A3c))-D-2-Nal-Arg-Trp-Lys]-NH2 (peptide) , its Ki was 2880

Value of measured Ki for the entry Hydantoin(C(O)-(D-Arg-Gly))-cyclo(Cys-Glu-His-D-Phe-Arg-Trp-Cys)-NH2 (peptide) : 2260

Hydantoin(C(O)-(Gly-D-Arg))-cyclo(Cys-Glu-His-D-Phe-Arg-Trp-Cys)-NH2 (peptide) has a reported Ki of 4540

###

System tested: human melanocortin-1 receptor (human) (UniProt Q01726)
Sequence (Q01726 whole entry): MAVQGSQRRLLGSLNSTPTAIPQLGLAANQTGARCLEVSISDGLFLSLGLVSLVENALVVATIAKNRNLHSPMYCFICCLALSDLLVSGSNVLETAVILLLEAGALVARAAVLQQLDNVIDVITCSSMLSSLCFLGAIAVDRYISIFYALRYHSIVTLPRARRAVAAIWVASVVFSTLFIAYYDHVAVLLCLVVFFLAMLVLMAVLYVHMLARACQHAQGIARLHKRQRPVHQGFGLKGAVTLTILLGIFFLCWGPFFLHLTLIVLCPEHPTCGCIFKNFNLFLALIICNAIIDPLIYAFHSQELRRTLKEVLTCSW
Run description: competition with [125I]-NDP-alpha-MSH, CHO-K1 cell membranes
Please respond with reported pKi for every item in the list.
Reminder that pKi is minus the log10 of a molar concentration.

For the substance cyclo[Hydantoin(C(O)-(Asp-Aic))-D-2-Nal-Arg-Trp-Lys]-NH2 (peptide) , the measured pKi on human melanocortin-1 receptor (human) (UniProt Q01726) was 5.04

Fill in: human melanocortin-1 receptor (human) (UniProt Q01726) pKi for cyclo[Hydantoin(C(O)-(Glu-D-Ala))-His-D-Phe-Arg-Trp-Dab]-NH2 (peptide) = 7.55

GET /values?item= Hydantoin(C(O)-(Nle-Gly))-cyclo(Cys-D-Ala-His-D-Phe-Arg-Trp-Pen)-NH2 (peptide) &system= human melanocortin-1 receptor (human) (UniProt Q01726) returns pKi: 7.89

Kindly note: human melanocortin-1 receptor (human) (UniProt Q01726), cyclo[Hydantoin(C(O)-(Asp-A6c))-D-2-Nal-Arg-Trp-Lys]-NH2 (peptide) , pKi value reported: 5.66

# Hydantoin(C(O)-(Gly-D-Arg))-cyclo(Cys-Glu-His-D-Phe-Arg-Trp-Cys)-NH2 (peptide) with human melanocortin-1 receptor (human) (UniProt Q01726): pKi is 8.37

cyclo[Hydantoin(C(O)-(Asp-A3c))-D-2-Nal-Arg-Trp-Lys]-NH2 (peptide) tested on human melanocortin-1 receptor (human) (UniProt Q01726) gave pKi: 5.12

human melanocortin-1 receptor (human) (UniProt Q01726) pKi of cyclo[Hydantoin(C(O)-(Asp-D-Ala))-His-D-Phe-Arg-Trp-Orn]-NH2 (peptide) is 7.42

pKi for human melanocortin-1 receptor (human) (UniProt Q01726) with input cyclo[Hydantoin(C(O)-(Glu-D-Ala))-His-D-Phe-Arg-Trp-Orn]-NH2 (peptide) equals 7.22

Value sought: pKi, system human melanocortin-1 receptor (human) (UniProt Q01726), item cyclo[Hydantoin(C(O)-(Glu-D-Ala))-His-D-Phe-Arg-Trp-Dap]-NH2 (peptide) . Result: 7.79

For cyclo[Hydantoin(C(O)-(Asp-His))-D-2-Nal-Arg-Trp-Lys]-NH2 (peptide) on human melanocortin-1 receptor (human) (UniProt Q01726), measured pKi was 6.70

Observed pKi, human melanocortin-1 receptor (human) (UniProt Q01726), cyclo[Hydantoin(C(O)-(Asp-D-Ala))-His-D-Phe-Arg-Trp-Dap]-NH2 (peptide) : 7.18

Record cyclo[Hydantoin(C(O)-(Asp-Apc))-D-2-Nal-Arg-Trp-Lys]-NH2 (peptide) / human melanocortin-1 receptor (human) (UniProt Q01726), pKi recorded as 5.89

Noted pKi for cyclo[Hydantoin(C(O)-(Asp-A5c))-D-2-Nal-Arg-Trp-Lys]-NH2 (peptide) , tested on human melanocortin-1 receptor (human) (UniProt Q01726): 5.00

Hey, human melanocortin-1 receptor (human) (UniProt Q01726) data for Hydantoin(C(O)-(D-Arg-Gly))-cyclo(Cys-Glu-His-D-Phe-Arg-Trp-Cys)-NH2 (peptide) : pKi came out at 8.02
